B1: C1orf137 (parent)
chain: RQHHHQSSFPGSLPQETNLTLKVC

Variants of: B1
Assay: protein stability index of a GFP-peptide fusion (GPS, HEK-293T) (PSI 1-6); higher = more stable;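 also: lentivirally expressed fusions sorted by FACS into six bins by GFP to DsRed ratio, PSI derived from sequencing read proportions per bin multiplied by bin number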
Conditions: c terminus: a fixed tail appended
Respond with label 1 for protein stability index values of 3 and above, label 0 for values below.

mutation id: S8M
assigned category: label 0
//
mutation id: S8P
assigned category: label 0
//
mutation id: F9R
assigned category: label 1
//
mutation id: V23H
assigned category: label 1
